Origin of values: patent US20250049896A1

Exercise: for every item that follows, state its recorded % Blocking.
# STUDY_SYSTEM: T1, Hmm-hTFRC (REGN2431), monomeric human transferrin receptor ectodomain with N-terminal hexahistidine-myc-myc … (human, UniProt P02786 89-760)
# T1 construct: also called hmm.hTfR(C89-F763); His-myc-myc-hTFRC ecto
# T1 sequence (P02786 other isoform, or with tags, fused parts or gaps): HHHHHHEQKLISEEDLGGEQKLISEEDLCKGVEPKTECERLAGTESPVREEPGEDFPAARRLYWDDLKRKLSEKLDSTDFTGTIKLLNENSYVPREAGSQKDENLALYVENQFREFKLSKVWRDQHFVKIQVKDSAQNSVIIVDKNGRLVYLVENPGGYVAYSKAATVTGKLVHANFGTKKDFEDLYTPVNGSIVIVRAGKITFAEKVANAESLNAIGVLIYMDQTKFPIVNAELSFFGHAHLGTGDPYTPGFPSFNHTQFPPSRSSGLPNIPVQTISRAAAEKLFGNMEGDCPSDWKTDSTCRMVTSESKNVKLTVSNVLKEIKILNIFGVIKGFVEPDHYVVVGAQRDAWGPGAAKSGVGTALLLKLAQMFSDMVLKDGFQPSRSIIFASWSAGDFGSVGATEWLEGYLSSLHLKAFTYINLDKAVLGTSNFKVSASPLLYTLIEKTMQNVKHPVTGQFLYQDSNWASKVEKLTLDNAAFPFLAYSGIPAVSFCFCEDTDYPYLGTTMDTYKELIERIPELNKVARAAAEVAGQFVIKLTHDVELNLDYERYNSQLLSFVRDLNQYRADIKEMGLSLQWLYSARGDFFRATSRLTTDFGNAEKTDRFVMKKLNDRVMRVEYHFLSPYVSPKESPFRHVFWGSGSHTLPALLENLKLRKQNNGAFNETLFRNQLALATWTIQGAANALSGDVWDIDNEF
# ASSAY: blocking ELISA, supernatant; Hmm-hTFRC binding to immobilized human holo-Tf
Number only, in %; omit the unit.

// sample 69340 scFv (VH-VK) (scFv) EVQLVESGGGLVQPGRSLRLSCAASGFTFDDKAMHWVRQVPGKGLEWISGISWNSGTIGYADSVKGRFIISRDNAKNSLYLQMNSLRAEDTALYYCAKDGDTSGWYWYGLDVWGQGTTVTVSSEIVLTQSPATLSLSPGERATLSCRASQSVSSYLAWYQQKPGQAPRLLIHDVSNRATGIPARFSGSGSGTDFTLTISSLEPEDFVVYYCQQRSDWPITFGQGTRLEIK , its % Blocking was 6

Measured % Blocking, 69329 scFv (VH-VK) (scFv) EVQLVESGGGLVQPGGSLRLSCAASGFTFSNYWMTWVRQAPGKGLEWVANIKEDGSEKDYVDSVKGRFTISRDNAKNSLYLQMNSLRGEDTAVYYCARDGEQLVDYYYYYVMDVWGQGTTVTVSSDIQMTQSPSSVSASVGDRVTITCRASQGISSWLAWYQQKPGKAPKLLIYAASSLQSGVPSRFSGSGSGTDFTLTISSLQPEDFATYYCQKANSFPYTFGQGTKLEIK : 25

Lookup result for 12802B Fab (Fab, V domains shown, CHO supernatant) VH: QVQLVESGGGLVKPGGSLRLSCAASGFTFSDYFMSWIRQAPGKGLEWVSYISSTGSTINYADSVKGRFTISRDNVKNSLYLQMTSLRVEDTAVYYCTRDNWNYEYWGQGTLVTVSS VL: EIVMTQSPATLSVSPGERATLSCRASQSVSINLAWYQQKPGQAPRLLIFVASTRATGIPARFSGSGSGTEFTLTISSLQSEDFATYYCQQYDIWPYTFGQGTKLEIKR ; measured % Blocking: 15
